src = patent US10947242B2

As shown below, each of these molecules has a reported IC50 value.
Target: Human recombinant PDE3A (hPDE3A) (Homo sapiens, UniProt Q14432)
Construct: purchased Scottish Biomedical; host or cells: Sf9 insect cells
Sequence (Q14432 whole entry): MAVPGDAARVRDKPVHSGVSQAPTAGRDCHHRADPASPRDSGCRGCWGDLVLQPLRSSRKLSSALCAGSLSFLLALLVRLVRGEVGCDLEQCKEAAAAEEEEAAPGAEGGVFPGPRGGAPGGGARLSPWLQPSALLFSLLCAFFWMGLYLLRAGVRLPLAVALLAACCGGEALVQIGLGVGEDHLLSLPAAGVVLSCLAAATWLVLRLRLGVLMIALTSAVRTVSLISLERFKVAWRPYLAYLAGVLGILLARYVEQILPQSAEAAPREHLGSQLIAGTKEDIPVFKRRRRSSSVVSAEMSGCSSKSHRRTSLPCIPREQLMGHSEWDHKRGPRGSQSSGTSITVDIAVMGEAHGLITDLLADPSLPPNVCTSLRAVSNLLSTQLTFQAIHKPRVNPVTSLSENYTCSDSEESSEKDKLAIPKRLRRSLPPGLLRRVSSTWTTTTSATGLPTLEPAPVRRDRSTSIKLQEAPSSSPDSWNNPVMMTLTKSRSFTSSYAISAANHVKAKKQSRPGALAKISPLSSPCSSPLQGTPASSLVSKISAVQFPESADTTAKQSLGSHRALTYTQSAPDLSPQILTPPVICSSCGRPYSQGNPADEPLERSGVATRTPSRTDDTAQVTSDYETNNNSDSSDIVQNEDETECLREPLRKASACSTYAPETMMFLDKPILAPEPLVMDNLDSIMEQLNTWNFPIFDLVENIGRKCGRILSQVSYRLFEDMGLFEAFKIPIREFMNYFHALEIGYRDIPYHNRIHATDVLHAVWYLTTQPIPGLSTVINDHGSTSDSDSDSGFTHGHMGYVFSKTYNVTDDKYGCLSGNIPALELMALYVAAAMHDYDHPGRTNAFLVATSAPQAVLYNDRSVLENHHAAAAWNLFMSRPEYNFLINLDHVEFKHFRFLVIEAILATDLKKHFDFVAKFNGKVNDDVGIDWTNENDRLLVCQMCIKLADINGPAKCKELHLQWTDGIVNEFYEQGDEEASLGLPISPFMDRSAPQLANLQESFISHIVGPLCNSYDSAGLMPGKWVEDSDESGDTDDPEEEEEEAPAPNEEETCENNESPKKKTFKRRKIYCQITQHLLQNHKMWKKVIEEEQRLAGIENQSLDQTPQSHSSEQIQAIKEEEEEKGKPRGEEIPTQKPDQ
Assay: In vitro assay PDE3A (SPA, 3H-cAMP hydrolysis);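 also: the method names PDE3A and the table heading PDE3B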
Type: biochemical
Conditions: hPDE3B pIC50; read-out: pIC50 (converted)
Quick note: give the figure in µM, leave out the unit.

[[record]]
smilesrepresentation = "COc1c(C)cc(C(=O)N2[C@H]3CC[C@H](c4cc(C(F)F)nc5ncnn45)[C@@H]2CC3)cc1C"
system = "Human recombinant PDE3A (hPDE3A) (Homo sapiens, UniProt Q14432)"
attributemeasured = "IC50"
unittag = "µM"
recordedresult = 4.68

[[record]]
smilesrepresentation = "COc1cc(C(=O)N2CC[C@@H](C)[C@H](c3cc(C(F)F)nc4ncnn34)C2)ccc1Cl"
system = "Human recombinant PDE3A (hPDE3A) (Homo sapiens, UniProt Q14432)"
attributemeasured = "IC50"
unittag = "µM"
recordedresult = 1.74

[[record]]
smilesrepresentation = "C[C@@H]1CCN(C(=O)c2ccc3c(ccn3CCF)c2)C[C@H]1c1cc(C(F)F)nc2ncnn12"
system = "Human recombinant PDE3A (hPDE3A) (Homo sapiens, UniProt Q14432)"
attributemeasured = "IC50"
unittag = "µM"
recordedresult = 0.145

[[record]]
smilesrepresentation = "Cc1csc(C(=O)N2CC[C@@H](C)[C@H](c3cc(C(F)F)nc4ncnn34)C2)c1"
system = "Human recombinant PDE3A (hPDE3A) (Homo sapiens, UniProt Q14432)"
attributemeasured = "IC50"
unittag = "µM"
recordedresult = 6.03

[[record]]
smilesrepresentation = "O=C(c1ccc2ccccc2c1)N1[C@H]2CC[C@H](c3cc(C(F)F)nc4ncnn34)[C@@H]1CC2"
system = "Human recombinant PDE3A (hPDE3A) (Homo sapiens, UniProt Q14432)"
attributemeasured = "IC50"
unittag = "µM"
recordedresult = 1.02

[[record]]
smilesrepresentation = "C[C@@H]1CCN(C(=O)c2ccc3scnc3c2)C[C@H]1c1cc(C(F)F)nc2ncnn12"
system = "Human recombinant PDE3A (hPDE3A) (Homo sapiens, UniProt Q14432)"
attributemeasured = "IC50"
unittag = "µM"
recordedresult = 0.38


Name the reported IC50 value associated with the molecule C[C@@H]1CCN(C(=O)c2ccc(F)c(C3CC3)c2)C[C@H]1c1cc(C(F)F)nc2ncnn12
2.63

Another: COc1cc(C(=O)N2CC[C@@H](C)[C@H](c3cc(C(F)F)nc4ncnn34)C2)cc(C(C)C)n1
1.82

Another: Cc1cc([C@@H]2CN(C(=O)c3cnc4ccc(C(F)(F)F)cn34)CC[C@H]2C)n2ncnc2n1
4.27

Another: C[C@@H]1CCN(C(=O)c2cc3ccccc3n2C)C[C@H]1c1cc(C(F)F)nc2ncnn12
0.0891

Another: C[C@@H]1CCN(C(=O)c2ccc(F)c(OC(F)F)c2)C[C@H]1c1cc(C(F)F)nc2ncnn12
3.47

----------
Target: Human recombinant PDE2A (hPDE2A) (Homo sapiens)
Construct: His tag (inferred from metal chelate purification); made in house; host or cells: Sf9 insect cells (baculovirus)
Experiment: In vitro assay PDE2A (SPA, 3H-cGMP hydrolysis)
Assay type: biochemical
Conditions: read-out: hPDE2A pIC50 (converted)
attributeMeasured: log10 IC50 (log10 of the value in nM)
Form field - Quantity: IC50; Unit: nM; Scale: log10

Recorded results for 6 molecules are shown here.
[[record]]
smilesrepresentation = "C[C@@H]1CCN(C(=O)c2c(Cl)cncc2Cl)C[C@H]1c1cc(C(F)F)nc2ncnn12"
recordedresult = 3.28

[[record]]
smilesrepresentation = "C[C@@H]1CCN(C(=O)c2cncnc2)C[C@H]1c1cc(C(F)F)nc2ncnn12"
recordedresult = 2.57

[[record]]
smilesrepresentation = "Cc1c(C(=O)N2CC[C@@H](C)[C@H](c3cc(C(F)F)nc4ncnn34)C2)ccc2c1OCO2"
recordedresult = 1.56

[[record]]
smilesrepresentation = "C[C@@H]1CCN(C(=O)c2cccc(OC(F)(F)F)c2F)C[C@H]1c1cc(C(F)F)nc2ncnn12"
recordedresult = 1.32

[[record]]
smilesrepresentation = "C[C@@H]1CCN(C(=O)c2cnc3n2CCCC3)C[C@H]1c1cc(C(F)F)nc2ncnn12"
recordedresult = 1.33

[[record]]
smilesrepresentation = "C[C@@H]1CCN(C(=O)c2cc(OC(F)F)cc(C3CC3)c2)C[C@H]1c1cc(C(F)F)nc2ncnn12"
recordedresult = -0.43


Name the reported log10 IC50 value associated with the molecule Cc1cc(C(=O)N2CC[C@@H](C)[C@H](c3cc(C(F)F)nc4ncnn34)C2)cc(C2CC2)n1
-0.34

----------
Biological target: Human recombinant PDE10A (hPDE10A) (Homo sapiens, UniProt Q9Y233)
Construct: His tag (inferred from metal chelate purification); made in house; host or cells: Sf9 insect cells (baculovirus)
Sequence (Q9Y233 267-1055): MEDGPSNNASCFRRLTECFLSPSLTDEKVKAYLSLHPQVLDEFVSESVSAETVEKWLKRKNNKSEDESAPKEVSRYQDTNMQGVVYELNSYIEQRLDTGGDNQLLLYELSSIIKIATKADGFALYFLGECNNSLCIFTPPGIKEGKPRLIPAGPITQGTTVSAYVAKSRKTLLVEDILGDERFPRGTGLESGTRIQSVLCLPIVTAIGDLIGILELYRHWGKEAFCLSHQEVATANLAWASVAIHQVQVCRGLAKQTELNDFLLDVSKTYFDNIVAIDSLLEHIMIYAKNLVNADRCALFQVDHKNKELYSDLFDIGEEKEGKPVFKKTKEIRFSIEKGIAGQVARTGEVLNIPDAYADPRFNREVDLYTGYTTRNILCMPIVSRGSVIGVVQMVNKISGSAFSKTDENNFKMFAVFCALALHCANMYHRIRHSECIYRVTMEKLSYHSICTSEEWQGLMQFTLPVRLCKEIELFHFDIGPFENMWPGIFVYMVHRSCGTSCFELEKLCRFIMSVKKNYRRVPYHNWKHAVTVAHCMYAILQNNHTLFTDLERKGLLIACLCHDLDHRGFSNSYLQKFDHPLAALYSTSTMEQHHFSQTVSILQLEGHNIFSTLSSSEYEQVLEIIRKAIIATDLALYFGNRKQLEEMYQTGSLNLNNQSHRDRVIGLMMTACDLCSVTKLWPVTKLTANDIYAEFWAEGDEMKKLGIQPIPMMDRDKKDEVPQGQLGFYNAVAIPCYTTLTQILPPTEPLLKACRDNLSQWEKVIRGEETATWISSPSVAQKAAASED
Experiment: In vitro assay PDE10A, human clone (SPA, 3H-cAMP hydrolysis)
Format: biochemical
Details: human clone (h), default; read-out: hPDE10A2 pIC50 (converted)
As shown below, each of these compounds has a reported IC50 value.
Quick note: give the figure in µM, leave out the unit.

Recorded results for 3 compounds are shown here.
[[record]]
smilesrepresentation = "C[C@@H]1CCN(C(=O)c2ccc3ncsc3c2)C[C@@]1(F)c1cc(C(F)F)nc2ncnn12"
system = "Human recombinant PDE10A (hPDE10A) (Homo sapiens, UniProt Q9Y233)"
attributemeasured = "IC50"
recordedresult = 6.17

[[record]]
smilesrepresentation = "Cc1cc(C(=O)N2CC[C@@H](C)[C@H](c3cc(C(F)F)nc4ncnn34)C2)on1"
system = "Human recombinant PDE10A (hPDE10A) (Homo sapiens, UniProt Q9Y233)"
attributemeasured = "IC50"
recordedresult = 2.04

[[record]]
smilesrepresentation = "C[C@@H]1CCN(C(=O)c2cccc(OC(F)(F)F)c2F)C[C@H]1c1cc(C(F)F)nc2ncnn12"
system = "Human recombinant PDE10A (hPDE10A) (Homo sapiens, UniProt Q9Y233)"
attributemeasured = "IC50"
recordedresult = 0.269


Then this compound:
Name the reported IC50 value associated with the compound C[C@@H]1CCN(C(=O)c2ccc(Cl)c(C3CC3)c2)C[C@H]1c1cc(C(F)F)nc2ncnn12
0.105

----------
As shown below, each of these molecules has a reported IC50 value.
Biological target: Human recombinant PDE2A (hPDE2A) (Homo sapiens, UniProt O00408)
Construct: His tag (inferred from metal chelate purification); made in house; host or cells: Sf9 insect cells (baculovirus)
Sequence (O00408 whole entry): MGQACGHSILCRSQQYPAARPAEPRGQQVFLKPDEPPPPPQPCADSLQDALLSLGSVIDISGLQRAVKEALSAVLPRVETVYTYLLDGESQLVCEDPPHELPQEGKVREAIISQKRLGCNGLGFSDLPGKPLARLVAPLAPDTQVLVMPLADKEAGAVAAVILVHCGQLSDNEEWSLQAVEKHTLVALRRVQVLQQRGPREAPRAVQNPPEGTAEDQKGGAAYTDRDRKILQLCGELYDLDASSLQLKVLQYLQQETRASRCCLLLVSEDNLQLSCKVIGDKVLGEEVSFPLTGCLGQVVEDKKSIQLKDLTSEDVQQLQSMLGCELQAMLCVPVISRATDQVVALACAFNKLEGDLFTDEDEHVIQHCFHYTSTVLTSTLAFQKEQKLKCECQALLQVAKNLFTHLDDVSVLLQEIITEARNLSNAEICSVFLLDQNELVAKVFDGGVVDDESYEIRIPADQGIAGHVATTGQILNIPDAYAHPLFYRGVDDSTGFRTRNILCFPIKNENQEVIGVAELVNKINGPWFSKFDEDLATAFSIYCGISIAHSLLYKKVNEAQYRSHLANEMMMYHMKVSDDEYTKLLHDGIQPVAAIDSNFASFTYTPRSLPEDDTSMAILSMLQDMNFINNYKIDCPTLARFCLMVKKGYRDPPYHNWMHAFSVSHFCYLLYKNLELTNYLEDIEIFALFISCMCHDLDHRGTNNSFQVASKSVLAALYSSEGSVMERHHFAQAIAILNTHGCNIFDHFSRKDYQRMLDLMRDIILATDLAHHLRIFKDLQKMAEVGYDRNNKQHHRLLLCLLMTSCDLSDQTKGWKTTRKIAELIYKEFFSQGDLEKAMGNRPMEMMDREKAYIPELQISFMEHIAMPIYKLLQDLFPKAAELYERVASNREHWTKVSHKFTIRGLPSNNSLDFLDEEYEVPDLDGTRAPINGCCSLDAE
Experiment: In vitro assay PDE2A (SPA, 3H-cGMP hydrolysis)
Assay type: biochemical
Settings: human recombinant PDE2A, 10 μM cGMP substrate; read-out: hPDE2A pIC50 (converted)
Quick note: give the figure in nM, leave out the unit.

Recorded results for 3 molecules are shown here.
[[record]]
molecule = "COc1cc(C(=O)N2CC[C@@H](C)[C@H](c3cc(C(F)F)nc4ncnn34)C2)cc(C2CC2)n1 [Compound 113]"
system = "Human recombinant PDE2A (hPDE2A) (Homo sapiens, UniProt O00408)"
unittag = "nM"
recordedresult = 1

[[record]]
molecule = "Cc1cc([C@@H]2CN(C(=O)c3cnc4ccc(C(F)(F)F)cn34)CC[C@H]2C)n2ncnc2n1 [Compound 20]"
system = "Human recombinant PDE2A (hPDE2A) (Homo sapiens, UniProt O00408)"
unittag = "nM"
recordedresult = 12

[[record]]
molecule = "CCCC[C@H]1CCN(C(=O)c2cc(C)nc(C)c2)C[C@H]1c1cc(C(F)F)nc2ncnn12 (mixture of isomers) [Compound 219]"
system = "Human recombinant PDE2A (hPDE2A) (Homo sapiens, UniProt O00408)"
unittag = "nM"
recordedresult = 138


Request - read-out IC50 | tested on Human recombinant PDE2A (hPDE2A) (Homo sapiens, UniProt O00408) | molecule C[C@@H]1CCN(C(=O)c2ccc(Cl)c(OC(F)F)c2)C[C@H]1c1cc(C(F)F)nc2ncnn12 [Compound 121]
1.78

Another: COc1cc(C(=O)N2CC[C@@H](C)[C@H](c3cc(C(F)F)nc4ncnn34)C2)c(C)cn1 [Compound 53]
5.62

Another: Cc1ccc(F)c(C(=O)N2CC[C@@H](C)[C@@H](c3cc(C(F)F)nc4ncnn34)C2)n1 [Compound 222]
282

----------
As shown below, each of these compounds has a reported IC50 value.
Biological target: Human recombinant PDE10A (hPDE10A) (Homo sapiens, UniProt Q9Y233)
Construct: His tag (inferred from metal chelate purification); made in house; host or cells: Sf9 insect cells (baculovirus)
Assay: In vitro assay PDE10A, human clone (SPA, 3H-cAMP hydrolysis)
Assay type: biochemical
Settings: human clone (h), default; read-out: hPDE10A2 pIC50 (converted)
Quick note: give the figure in nM, leave out the unit.

[[record]]
smilesrepresentation = "Cc1cc([C@@H]2CN(C(=O)c3cc4ccccc4o3)CC[C@H]2C)n2ncnc2n1"
attributemeasured = "IC50"
recordedresult = 11.2


Name the reported IC50 value associated with the compound COc1cccc2c1OCC(C(=O)N1CC[C@@H](C)[C@H](c3cc(C(F)F)nc4ncnn34)C1)=C2
11.2

Another: Cc1ccc2cc(C(=O)N3CC[C@@H](C)[C@H](c4cc(C(F)F)nc5ncnn45)C3)c(C)nc2c1
151

Another: C[C@@H]1CCN(C(=O)c2cnc3n2CCCC3)C[C@H]1c1cc(C(F)F)nc2ncnn12
537

Another: C[C@@H]1CCN(C(=O)c2ccc(C3CC3)c(F)c2)C[C@H]1c1cc(C(F)F)nc2ncnn12
18.2

Another: C[C@@H]1CCN(C(=O)c2cccc(C(F)(F)F)c2F)C[C@H]1c1cc(C(F)F)nc2ncnn12
912
